Values from ChEMBL document CHEMBL2021791

- System: Hepatitis B virus
- experimentDescription: Selectivity ratio of CC50 for human HepG2(2.2.15) cells to IC50 for Hepatitis B virus infected in human HepG2(2.2.15) cells assessed as suppression of HBeAg secretion
- Assay type: cell-based
- measurementParameters: read-out: Ratio CC50/IC50
Task for the reader: assign each of the following molecules its reported selectivity ratio.

Worked examples, 2 molecules total:
molecule: CC(=O)[C@]1(OC(=O)/C=C/c2ccc3c(c2)OCO3)CC[C@@]2(O)[C@]1(C)[C@H](OC(=O)/C=C(\C)C(C)C)C[C@@H]1[C@@]3(C)CC[C@H](OC(=O)/C=C/c4ccc5c(c4)OCO5)CC3=CC[C@]12O
selectivity ratio: > 2.5

molecule: CC(=O)N1CCC(C(=O)O[C@H]2CC[C@@]3(C)C(=CC[C@]4(O)[C@@H]3C[C@@H](OC(=O)/C=C(\C)C(C)C)[C@@]3(C)[C@]4(O)CC[C@@]3(O)C(C)=O)C2)CC1
selectivity ratio: > 1

Okay, next one:
Exercise: Which selectivity ratio is listed for CC(=O)[C@]1(O)CC[C@@]2(O)[C@]1(C)[C@H](OC(=O)/C=C(\C)C(C)C)C[C@@H]1[C@@]3(C)CC[C@H](O)CC3=CC[C@]12O [CAUDATIN] ?
Key: < 1.3
